Entry source: the array DNA melting data of Ke et al. (doi:10.1101/2024.01.08.574731)

Exercise: state measured Tm for each of the sequences provided.
Assay: melting temperature; fluorescence melt of hairpins on a sequencing array, two-state fit, raised by 9.35 °C to match UV melts
Conditions: sodium 0.088 M
Answer format: number, then unit.

What does the record list as Tm for GCCCACGAAAGTGACGGC ((((((....)))..))) ?
49.6 °C

What does the record list as Tm for GGCAAGGGAAACTTTGCC (((((.(....).))))) ?
50.1 °C

What does the record list as Tm for GGTTACGAAAGTATAACC ((((((....)))..))) ?
37.2 °C

What does the record list as Tm for GCCTGAGCGAAAGCTGGC (((..(((....)))))) ?
52.6 °C

What does the record list as Tm for GACTGTGGAAACACAGTC (((((((....))))))) ?
66.5 °C

What does the record list as Tm for GATACCGAAAGGTTCATC ((((((....)))..))) ?
32 °C

What does the record list as Tm for GATCTCCCATGAGATC ((((((....)))))) ?
51.6 °C

What does the record list as Tm for GGCTTTGGAAACAAGGTC (.(.(((....))).).) ?
32.2 °C

What does the record list as Tm for GATCGGCCGTCCGATC ((((((....)))))) ?
58.3 °C

What does the record list as Tm for GCGACTGGAAACGGTCGC (((((.(....).))))) ?
64.7 °C

What does the record list as Tm for GCACGCGAAAGCGAATGC ((((((....)))..))) ?
49.2 °C

What does the record list as Tm for GTAGTGAAAACTAC (((((....))))) ?
45.1 °C

What does the record list as Tm for GGTGGTCCGAAAGGAACC (((..(((....)))))) ?
48.9 °C

What does the record list as Tm for AGTCAGAAATGACT (((((....))))) ?
43.3 °C

What does the record list as Tm for TCGTGGAAACACGA (((((....))))) ?
53.7 °C

What does the record list as Tm for GATTTCGGAAACGAAGTC ((.((((....)))).)) ?
39.3 °C

What does the record list as Tm for GAAAGGCGAAAGCCCTTC (((.(((....))).))) ?
38.8 °C

What does the record list as Tm for GAGGGCGAAAGCCGCCTC ((((((....)))..))) ?
36.3 °C

What does the record list as Tm for GGAGACGAAAGTCTTTCC ((((((....)))..))) ?
32.6 °C

What does the record list as Tm for GGCCGTGGAAACGCGGTC (.(((.(....).))).) ?
52.5 °C

What does the record list as Tm for GATCCATAGATGGATC ((((((....)))))) ?
51.2 °C

What does the record list as Tm for GGGACCGAAAGGTGCCCC ((((((....)))..))) ?
57.6 °C

What does the record list as Tm for GGACTCCGAAAGGACTCC (((.(((....))).))) ?
39.2 °C

What does the record list as Tm for GATCTAAGGGTAGATC ((((((....)))))) ?
35.3 °C

What does the record list as Tm for GCACGCGGAAACGCGTAC (.(((((....))))).) ?
48.1 °C

What does the record list as Tm for GCATGTGGAAACACACGC ((.((((....)))).)) ?
46 °C

What does the record list as Tm for GAATCTGGAAACGGATTC (((((.(....).))))) ?
44.8 °C

What does the record list as Tm for GACAGGGAAACCTGTC ((((((....)))))) ?
58.9 °C

What does the record list as Tm for CGCGGACTCCTCCGCG ((((((....)))))) ?
68.9 °C

What does the record list as Tm for GCGGCCGGAAACAGCCGC (((((.(....).))))) ?
64.8 °C

What does the record list as Tm for GGTGTTGGAAACAGTACC (((..((....))..))) ?
31.7 °C

What does the record list as Tm for GCAGGTGCGAAAGCATGC (((..(((....)))))) ?
43.9 °C

What does the record list as Tm for GTAGAAGGAAACCTCTAC (((((.(....).))))) ?
33.4 °C

What does the record list as Tm for GCCAATGAAAATTGGC ((((((....)))))) ?
59.9 °C

What does the record list as Tm for GCTATCGAAAGATCAAGC ((((((....)))..))) ?
30.8 °C

What does the record list as Tm for GAATGCCGAAAGGCTTTC (((.(((....))).))) ?
48 °C

What does the record list as Tm for GGAGACGAAAGTCAGTCC ((((((....)))..))) ?
31.6 °C

What does the record list as Tm for GATCGGTGACCGATC ((((((...)))))) ?
55.5 °C

What does the record list as Tm for GGAGGAGGAAACCCCTCC (((((.(....).))))) ?
48.1 °C

What does the record list as Tm for GAGTCGCGAAAGCGCTC (((.(((....)))))) ?
54.6 °C

What does the record list as Tm for GCTATCCGAAAGGAAAGC (((.(((....))).))) ?
49 °C

What does the record list as Tm for GATCTGTAACAGATC ((((((...)))))) ?
48.6 °C

What does the record list as Tm for GATCTCTAGGGAGATC ((((((....)))))) ?
53.1 °C

What does the record list as Tm for GATCGGGGAAACTCGGTC ((.((.(....).)).)) ?
38 °C

What does the record list as Tm for GAAACCGGAAACGGTCTC ((.((((....)))).)) ?
35.5 °C

What does the record list as Tm for GACTCCGGAAACGGAACC (..((((....))))..) ?
26.1 °C

What does the record list as Tm for GAAACTGGAAACAGCTTC (((.(((....))).))) ?
32.5 °C

What does the record list as Tm for GATCGCAAGGGCGATC ((((((....)))))) ?
68 °C

What does the record list as Tm for GCGTCGGGAAACCAACGC ((((.((....)).)))) ?
51.5 °C

What does the record list as Tm for GCGACACCTCGC ((((....)))) ?
51.3 °C

* * *

Test: folding enthalpy; higher = less favourable; fluorescence melt of hairpins on a sequencing array, two-state fit
Conditions: sodium 0.088 M
Hi, to clarify the labels: 1 covers folding enthalpy from -30 kcal/mol upward, -1 covers anything below -30 kcal/mol.

Could you verify whether the entry GGCAAAGGAAACTTTGCC (((((((....))))))) shows folding enthalpy of no less than -30 kcal/mol?
-1

Could you verify whether the entry GATCGTTACTACGATC ((((((....)))))) shows folding enthalpy of no less than -30 kcal/mol?
-1

Could you verify whether the entry GATCTTCCATAAGATC ((((((....)))))) shows folding enthalpy of no less than -30 kcal/mol?
-1

Could you verify whether the entry GGGATCGGAAACGATCTC (.(((((....))))).) shows folding enthalpy of no less than -30 kcal/mol?
-1

Could you verify whether the entry GTTAAACGAAAGTTCAAC (((.(((....))).))) shows folding enthalpy of no less than -30 kcal/mol?
1

Could you verify whether the entry GATCTCAACGAGATC ((((((...)))))) shows folding enthalpy of no less than -30 kcal/mol?
-1

Could you verify whether the entry GCTTCTGGAAACAGAGGC ((.((((....)))).)) shows folding enthalpy of no less than -30 kcal/mol?
-1

Could you verify whether the entry GGAGGCGAAAGCCTATCC ((((((....)))..))) shows folding enthalpy of no less than -30 kcal/mol?
1

Could you verify whether the entry GGCCTTCGAAAGAAAGCC (((.(((....))).))) shows folding enthalpy of no less than -30 kcal/mol?
-1

Could you verify whether the entry GATCCTGGAAACAGAATC (((.(((....))).))) shows folding enthalpy of no less than -30 kcal/mol?
1

Could you verify whether the entry GGATCCGAAAGGATATCC ((((((....)))..))) shows folding enthalpy of no less than -30 kcal/mol?
1

Could you verify whether the entry GATCGCGGAAACGTGATC ((((.((....)).)))) shows folding enthalpy of no less than -30 kcal/mol?
-1

* * *

Assay: melting temperature; fluorescence melt of hairpins on a sequencing array, two-state fit, raised by 9.35 °C to match UV melts
Details: sodium 0.088 M
measured.endpoint: Tm (°C)
Write down the numeric answer in °C and omit the unit.

What does the record list as Tm for GCTTACGAAAGTACAAGC ((((((....)))..))) ?
37.6

What does the record list as Tm for GTGGACGAAAGTCCTCAC ((((((....)))..))) ?
38

What does the record list as Tm for GATCATTATCATGATC ((((((....)))))) ?
45.8

What does the record list as Tm for GTGGTCACGAAAGTGCAC (((..(((....)))))) ?
39.9

What does the record list as Tm for GGAACCGAAAGGTCGTCC ((((((....)))..))) ?
31.4

What does the record list as Tm for GGCATCGGAAACAATGCC (((((.(....).))))) ?
46.7
